test system: lambsquarters; assay: Test C preemergence/postemergence greenhouse plant response rating 0 to 100; assay type: in vivo, Chenopodium album; settings: Rate 31 g/ha; POSTEMERGENCE
Parameter Plant response rating (0 to 100), Lambsquarters: see the listing below.
Kindly provide the number alone.

Please review the entries below; each comes with its answer.
CCOC(=O)COc1cc(-c2nn3c(c2Cl)CCCC3)c(F)cc1Cl | 100
COCOc1cc(-c2nn3c(c2Cl)CCCC3)c(F)cc1Cl | 100
C=C(Cl)COc1cc(-c2nn3c(c2Cl)CCCC3)c(F)cc1Cl | 70
C=CCN1C(=O)COc2cc(F)c(-c3nn4c(c3Br)CCCC4)cc21 | 100

Write down Plant response rating (0 to 100), Lambsquarters measured for item C#CC(C)Oc1cc(-c2nn3c(c2Cl)CCCC3)c(F)cc1Cl (centres unmarked)
95

----------
// values below are reported Plant response rating, Barley
system: barley; experiment: Test B preemergence/postemergence greenhouse plant response rating 0 to 10; format: in vivo, Hordeum vulgare; details: PREEMERGENCE, Rate 50 g/ha; 0 to 10 scale
Reply briefly: the number, and no unit.

Recorded results for 5 compounds are shown here.
CC(C)(C)C(=O)COc1cc(-c2nn3c(c2Cl)CCCC3)c(Cl)cc1Cl | 0
Fc1cc(Cl)c(OC2CCCC2)cc1-c1nn2c(c1Cl)CCCC2 | 0
CCC(=O)Oc1cc(-c2nn3c(c2Cl)CCCC3)c(F)cc1Cl | 0
CC(C)N1C(=O)COc2cc(F)c(-c3nn4c(c3Cl)CCCC4)cc21 | 0
CC(C)Oc1cc(-c2nn3c(c2Br)CCCC3)c(F)cc1Cl | 0

Supply measured Plant response rating, Barley of `CON=C(C)c1cc(-c2nn3c(c2Cl)CCCC3)c(F)cc1Cl` in your reply.
0

Please supply the value of reported Plant response rating, Barley for the item COC(=O)C(C)Oc1cc(-c2nn3c(c2Cl)CCCC3)c(F)cc1Cl (stereo not shown)
0

Report measured Plant response rating, Barley; entry is `COCOc1cc(-c2nn3c(c2Cl)CCCC3)c(F)cc1Cl`
1

Identify the reported Plant response rating, Barley for the following entry. `O=C1COc2cc(F)c(-c3nn4c(c3Br)CCCC4)cc2N1`
0

Fill in Plant response rating, Barley for record `COCOc1cc(-c2nn3c(c2Br)CCCC3)c(F)cc1Cl`
0

Give reported Plant response rating, Barley value for `CCOC(=O)COc1cc(-c2nn3c(c2Cl)CCCC3)c(F)cc1Cl`
0

Indicate its recorded Plant response rating, Barley; the compound in question is `CCCOc1cc(-c2nn3c(c2Cl)CCCC3)c(F)cc1Cl`
0

Give me measured Plant response rating, Barley, please, for this compound: `COCN1C(=O)COc2cc(F)c(-c3nn4c(c3Br)CCCC4)cc21`
2

In one line, give reported Plant response rating, Barley of the entry CC(C#N)Oc1cc(-c2nn3c(c2Cl)CCCC3)c(F)cc1Cl (stereo not shown) .
0

Let me know recorded Plant response rating, Barley for C#CC(C)N1C(=O)COc2cc(F)c(-c3nn4c(c3Cl)CCCC4)cc21 (stereo not shown) , thanks.
0

// fetch Plant response rating, Barley given entry `Fc1cc(Cl)ccc1-c1nn2c(c1Br)CCCC2`
2

Tell me Plant response rating, Barley reported for `C=CCN1C(=O)COc2cc(F)c(-c3nn4c(c3Cl)CCCC4)cc21`
1

Given `COCCN1C(=O)COc2cc(F)c(-c3nn4c(c3Cl)CCCC4)cc21` , respond with its Plant response rating, Barley.
1

Please look at this compound and report its Plant response rating, Barley: `C#CCOc1cc(-c2nn3c(c2Br)CCCC3)c(F)cc1Cl`
0

Hey, just so you know, these numbers are from patent US6358885B1.
